Observed pIC50 values for SMYD2 (Homo sapiens (Human), UniProt Q9NRG4) are listed in what follows.
Recall that pIC50 is obtained by taking minus log10 of the concentration measured in molar.

>>> meas_value("O=C1COc2c(cccc2[C@H](O)CNCCN(C(=O)CCNCCc2ccc(Cl)c(Cl)c2)C2CCCCC2)N1 [Example 1a]")
7.64
>>> meas_value("O=C1COc2c(CCNCCN(C(=O)CCNCCc3ccccc3)C3CCCC3)ccc(O)c2N1 [Example 3]")
5.43
>>> meas_value("CC(NCCc1ccc(Cl)c(Cl)c1)C(=O)N(CCNCc1ccc(C#N)cc1)C1CCCCC1 (stereo not drawn) [Example 7]")
4.80
>>> meas_value("O=C1COc2c(CCNCCN(C(=O)CCNCCc3ccc(Cl)c(Cl)c3)C3CCC3)ccc(O)c2N1 [Example 15]")
5.42
>>> meas_value("O=C(CCNCCc1ccc(Cl)c(Cl)c1)N(CCNCCCN1CCCCC1)C1CCCCC1 [Example 5]")
4.95

Next compound, pIC50 to be filled in.
Test system SMYD2 (Homo sapiens (Human), UniProt Q9NRG4); read-out pIC50; what value for O=C1COc2c(cccc2C(O)CNCCN(C(=O)CCNCCc2ccc(Cl)c(Cl)c2)C2CCCCC2)N1 (racemic) [Example 1] ?
7.19

---

- Assay System: SMYD2 (Homo sapiens (Human))
- Sequence (Q9NRG4 whole entry): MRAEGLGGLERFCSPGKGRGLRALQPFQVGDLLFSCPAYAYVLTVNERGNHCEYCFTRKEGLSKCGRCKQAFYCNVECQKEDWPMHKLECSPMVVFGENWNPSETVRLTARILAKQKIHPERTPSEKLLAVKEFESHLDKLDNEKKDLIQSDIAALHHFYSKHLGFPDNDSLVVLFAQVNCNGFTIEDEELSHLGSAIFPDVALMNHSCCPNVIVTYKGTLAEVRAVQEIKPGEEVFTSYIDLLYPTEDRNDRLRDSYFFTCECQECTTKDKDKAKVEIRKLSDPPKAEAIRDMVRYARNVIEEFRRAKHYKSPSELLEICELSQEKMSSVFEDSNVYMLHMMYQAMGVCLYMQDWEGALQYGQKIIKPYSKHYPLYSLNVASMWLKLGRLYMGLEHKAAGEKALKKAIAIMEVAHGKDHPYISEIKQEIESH
Here the recorded log10 of IC50 is given for each entry.
Hello, just confirming the data are log10 of IC50 with units of µM.

// known answers, use as guide
>>> meas_value("O=C(CCNCCc1ccc(Cl)c(Cl)c1)N(CCNCCCN1CCCC1)C1CCCCC1")
0.87
>>> meas_value("O=C1COc2c(cccc2[C@@H](O)CNCCN(C(=O)CCNCCc2ccc(Cl)c(Cl)c2)C2CCCCC2)N1")
-0.86
>>> meas_value("Cc1cn2ccccc2c1CCNCCN(C(=O)CCNCCc1cccc(Cl)c1Cl)C1CCCCC1")
0.54

Next molecule, log10 of IC50 to be filled in.
Param item = O=C(CCNCCc1ccc(Cl)c(Cl)c1)N(CCNCCN1CCCC1)C1CCCCC1 ; retrieve measured log10 of IC50.
1.08

---

Observed pIC50 values for SMYD2 (Homo sapiens (Human), UniProt Q9NRG4) are listed in what follows.
Recall that pIC50 is obtained by taking minus log10 of the concentration measured in molar.

>>> meas_value("O=C1COc2c(CCNCCN(C(=O)CCNCCc3ccc(Cl)c(Cl)c3)C3CCCC3)ccc(O)c2N1")
5.00
>>> meas_value("O=C(CCNCCc1ccc(Cl)c(Cl)c1)N(CCN1CCN(c2cccc3c2CCN3)CC1)C1CCCCC1")
5.01
>>> meas_value("CC1CNc2c(CC(C)(C)C)c(NCCN(C(=O)CCNCCc3ccc(Cl)c(Cl)c3)C3CCCCC3)nn2C1 (centres unmarked)")
4.48

Next compound, pIC50 to be filled in.
Param item = O=C1COc2c(CCNCCN(C(=O)CCNCc3ccc(Cl)c(Cl)c3)C3CCCCC3)ccc(O)c2N1 ; retrieve measured pIC50.
5.69
